# target_of_assay: P2Y purinoceptor 12 (Homo sapiens, UniProt Q9H244)
# Sequence (Q9H244 whole entry): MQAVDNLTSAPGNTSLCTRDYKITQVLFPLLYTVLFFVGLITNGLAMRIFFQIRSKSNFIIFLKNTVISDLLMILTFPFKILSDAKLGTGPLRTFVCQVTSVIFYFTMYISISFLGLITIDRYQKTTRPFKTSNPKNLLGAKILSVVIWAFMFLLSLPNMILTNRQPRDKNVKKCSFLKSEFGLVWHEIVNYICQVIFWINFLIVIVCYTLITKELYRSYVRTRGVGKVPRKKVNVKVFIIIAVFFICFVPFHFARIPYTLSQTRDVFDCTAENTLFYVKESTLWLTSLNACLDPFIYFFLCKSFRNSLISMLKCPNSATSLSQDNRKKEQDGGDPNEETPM
# assay_notes: Displacement of [33P]ADP from human recombinant P2Y12 receptor expressed in CHO cells
In this section, each of the molecules is paired with its reported Ki.
recorded_endpoint: Ki

mol_smiles=CCCCCCN1CCN(C(=O)[C@H](CCC(=O)O)NC(=O)c2cccc(-c3ccccc3)n2)CC1 endpoint_value="> 2.71 µM"
mol_smiles=CCCCS(=O)(=O)N1CCN(C(=O)[C@H](CCC(=O)O)NC(=O)c2cccc(-c3ccccc3)n2)CC1 endpoint_value="> 3.59 µM"
mol_smiles=CCS(=O)(=O)N1CCN(C(=O)[C@H](CCC(=O)O)NC(=O)c2cccc(-c3ccccc3)n2)CC1 endpoint_value="> 3.59 µM"
mol_smiles=CCCN1CCN(C(=O)[C@H](CCC(=O)O)NC(=O)c2cccc(-c3ccccc3)n2)CC1 endpoint_value="> 3.8 µM"
